tested on: HT-29; test: Cytotoxicity against human HT-29 cells by SRB assay; assay type: functional, cell-based; details: Homo sapiens, HT-29; read-out: EC50
pEC50: −log10 of the molar value.
Listing: pEC50 of selected compounds

Study these solved cases before continuing.
{"STRUCTURE STRING": "C=C(C)[C@@H]1CC[C@]2(C)[C@H](CC[C@@H]3[C@H]4[C@H]5OC[C@@]4(CCC5(C)C)CC[C@]32C)[C@@]1(C)CCC#N", "ENDPOINT VALUE": "< 4.52"}
{"STRUCTURE STRING": "C=C(C)[C@@H]1CC[C@]2(CO)CC[C@]3(C)[C@H](CC[C@@H]4[C@@]5(C)CC[C@H](O)C(C)(C)[C@@H]5CC[C@]43C)[C@@H]12", "ENDPOINT VALUE": "< 4.52"}

Lab note: next compound to report on.
// fetch HT-29 pEC50 for "C#CCOC(=O)CC[C@]1(C)[C@H]2CC[C@@H]3[C@H]4[C@H]5OC[C@@]4(CCC5(C)C)CC[C@@]3(C)[C@]2(C)CC[C@H]1C(=C)C"
< 4.52
